B1: Retinoic acid receptor beta, residues 85 to 161; numbered along this chain, P10826 (parent)
chain: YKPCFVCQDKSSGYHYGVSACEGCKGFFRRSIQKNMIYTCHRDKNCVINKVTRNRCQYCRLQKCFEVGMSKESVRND

variants of: B1; assay: abundance fitness (aPCA) (normalised: wild type 0, dead -1); higher = more abundant; growth selection in yeast, the domain comes from the species named; details: Homo sapiens
READOUT TYPE: abundance fitness

1) C4W | -0.954
2) K2R | -0.282
3) Y38N | -0.28
4) Y58T | -0.501
5) K25C | 0.02
6) C21M | -0.751
7) Q33N | 0.066
8) G26V | -0.121
9) R30D | 0.234
10) P3H | 0.006
11) A20G | -0.614
12) Y38D | -0.997
13) I37V | 0.032
14) D43S | -0.034
15) Q57E | 0.268
16) C7T | -0.438
17) E22S | -0.239
18) V51F | 0.13
19) K34G | 0.078
20) N35K | 0.186
21) D9Y | -0.57
22) K44C | -0.113
23) Y1W | -0.221
24) V51A | -0.115
25) C59A | -0.619
26) I32R | -0.648
27) Y58L | -0.545
28) N49R | -0.43
29) G17K | -0.138
30) D43R | -0.024
31) V18D | -0.637
32) N54W | -0.088
33) N35A | 0.037
34) K44V | -0.356
35) C56E | -0.703
36) G26T | -0.024
37) M36S | -0.002
38) G23S | 0.114
39) N45I | 0.054
40) C59I | -0.494
41) V47T | 0.056
42) C4N | -0.731
43) K44A | -0.004
44) V51L | 0.238
45) R30Q | -0.311
46) V18C | -0.106
47) D43H | -0.32
48) F28A | -0.534
49) K44I | -0.009
50) N54K | 0.183
51) G26Q | -0.11
52) A20N | -0.491
53) Q8P | -0.813
54) G13T | -0.053
55) G23R | -0.395
56) C56D | -0.623
57) D43F | -0.014
58) I37W | -0.119
59) N54C | -0.267
60) P3S | 0.031
61) C21K | -0.91
62) E22L | -0.186
63) Y1H | 0.055
